So I've got a bunch of molecules here, and I need their Kcat values.
# experimental_protocol: Standard protocol for determination of kcat and KM (continuous spectrophotometric assay, Acetyl CoA hydrolysis at 235 nm)
# Format: biochemical
# condition_details: purified protein; about 23° C.; 20 mM HEPES pH 6.8, 10% ethylene glycol, 0.2 mM acetyl CoA
# Procedure: KM was calculated from the initial reaction rates obtained from concentrations of glyphosate ranging from 0.125 to 10 mM, using the Lineweaver-Burke transformation of the Michaelis-Menten equation. kcat/KM was determined by dividing the value determined for kcat by the value determined for KM. Using this methodology, kinetic parameters for a number of GAT polypeptides exemplified herein were determined. […]
Answers are plain numbers, in s⁻¹.

Answered cases to consult:
1. SEQ ID NO: 362: GAT polypeptide (protein, 3C_10H3, GAT polypeptide) MIEVKPINAEDTYEIRHRILRPNQPLEACMYETDLLGGTFHLGGYYRGKLISIASFHQAEHSELEGQKQYQLRGMATLEGYREQKAGSTLIRHAEELLRKKGADLLWCNARISASGYYKKLGFSEQGGVYDIPPVGPHILMYKKLT: 0.565
2. SEQ ID NO: 363: GAT polypeptide (protein, 3C_12H10, GAT polypeptide) MIEVKPINAEDTYEIRHRILRPNQPLEACMYETDLLGGTFHLGGYYRGKLISIASFHQAEHSELEGQKQYQLRGMATLEGYRGQKAGSTLIRHAEELLRKKGADLLWCNARTSASGYYEKLGFSEQGEVYDIPPIGPHILMYKKLT: 0.152

Sample SEQ ID NO: 278: GAT polypeptide (protein, 10_2C7, GAT polypeptide) MIEVKPINAEDTYEIRHRILRPNQPLEACKYETDLLRGAFHLGGYYRGKLISIASFHQAEHPELEGQKQYQLRGMATLEGYREQKAGSTLIRHAEELLRKKGADLLWCNARTSASGYYKKLGFSEQGEVYDTPPVGPHILMYKKLT — what was its Kcat?
2.25
